Origin of the recorded values: paper PMC6270420

Listing of entries alongside the reported MIC.
System: methicillin-resistant Staphylococcus aureus H 5996/08 (MRSA)
assayProcedure: Antibacterial microdilution broth method
Type: cell-based
experimentalSetup: 48 h, read-out: MIC/IC90 MRSA H 5996/08
Description: The in vitro antibacterial activity was assayed against eight Gram-positive and Gram-negative strains: Staphylococcus aureus CCM 4516/08, methicillin-resistant Staphylococcus aureus H 5996/08 (MRSA), Staphylococcus epidermidis H 6966/08, Enterococcus sp. J 14365/08; Escherichia coli CCM 4517, Klebsiella pneumoniae D 11750/08, ESBL-positive Klebsiella pneumoniae J 14368/08, and Pseudomonas aeruginosa CCM 1961. […]
Give a bare numeral; the unit µM is implied.

compound	unitsOfMeasure	obsValue
O=C(Oc1cc(Cl)ccc1C(=O)Nc1cccc(Cl)c1)c1ccc(C(F)(F)F)cc1 [1b]	µM	1.95
O=C(Oc1cc(Cl)ccc1C(=O)Nc1ccc(Br)cc1)c1ccc(C(F)(F)F)cc1 [1j]	µM	0.98

Input line: Identify measured MIC obtained with methicillin-resistant Staphylococcus aureus H 5996/08 (MRSA) for O=C(Oc1cc(Cl)ccc1C(=O)Nc1cccc(Br)c1)c1ccc(C(F)(F)F)cc1 [1h] .
Output line: 0.98

====

System: Mtb. 53/2009
assayProcedure: microbe, parasite or virus in culture
Assay type: cell-based
experimentalSetup: Mycobacterium tuberculosis, 504 h, read-out: MIC Mtb. 53/2009
metricName: MIC (µM)
State just the number; it will be interpreted in µM.

Solved cases (3 shown):
inputSmiles	MIC / µM
O=C(Oc1ccc(Cl)cc1C(=O)Nc1ccc(Br)cc1)c1ccc(C(F)(F)F)cc1	4
O=C(Oc1cc(Cl)ccc1C(=O)Nc1cccc(Cl)c1)c1ccc(C(F)(F)F)cc1	8
O=C(Oc1cc(Cl)ccc1C(=O)Nc1ccc(Br)cc1)c1ccc(C(F)(F)F)cc1	2

Input line: State its MIC for this compound: O=C(Oc1ccc(Cl)cc1C(=O)Nc1ccc(C(F)(F)F)cc1)c1ccc(C(F)(F)F)cc1
Output line: 1

Input line: Retrieve MIC measured for O=C(Oc1cc(Cl)ccc1C(=O)Nc1ccc(Cl)c(Cl)c1)c1ccc(C(F)(F)F)cc1 and print it.
Output line: 2
